Molecular target: Tyrosine-protein kinase ITK/TSK (Homo sapiens) (UniProt Q08881);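 also: mean percent inhibition of ITK from the GSK PKIS screen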
Sequence (Q08881 whole entry): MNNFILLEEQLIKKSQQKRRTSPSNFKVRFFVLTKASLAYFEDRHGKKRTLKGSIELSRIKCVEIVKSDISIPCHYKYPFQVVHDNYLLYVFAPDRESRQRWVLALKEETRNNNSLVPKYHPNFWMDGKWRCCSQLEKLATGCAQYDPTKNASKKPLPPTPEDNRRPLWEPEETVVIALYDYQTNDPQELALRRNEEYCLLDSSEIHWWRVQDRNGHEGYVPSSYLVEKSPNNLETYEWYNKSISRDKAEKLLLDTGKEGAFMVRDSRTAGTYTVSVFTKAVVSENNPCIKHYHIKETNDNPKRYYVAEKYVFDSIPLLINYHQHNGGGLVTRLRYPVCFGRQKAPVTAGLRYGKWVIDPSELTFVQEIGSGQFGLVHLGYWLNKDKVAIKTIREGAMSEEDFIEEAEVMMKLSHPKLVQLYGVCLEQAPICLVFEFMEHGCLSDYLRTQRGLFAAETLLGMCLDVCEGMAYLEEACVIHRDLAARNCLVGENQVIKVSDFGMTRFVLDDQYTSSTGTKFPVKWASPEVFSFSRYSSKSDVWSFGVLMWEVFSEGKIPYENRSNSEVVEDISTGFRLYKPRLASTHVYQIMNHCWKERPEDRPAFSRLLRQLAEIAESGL
Conditions: at 0.1 µM
In this section we review reported inhibition values for a set of compounds.
Supply the numeric figure in %, leaving out any unit text.

Illustrative cases are given below, each with its answer.
| COMPOUND | TEST TARGET | inhibition (%) |
| --- | --- | --- |
| Cc1cccc(Nc2ncc(-c3ccccc3)o2)c1 | Tyrosine-protein kinase ITK/TSK (Homo sapiens) (UniProt Q08881) | 2.38 |
| CCn1c(-c2nonc2N)nc2cnc(Oc3cccc(NC(=O)c4ccc(N(C)C)cc4)c3)cc21 | Tyrosine-protein kinase ITK/TSK (Homo sapiens) (UniProt Q08881) | 0.98 |
| O=C(O[C@H]1CN[C@H](C#Cc2cc3ncnc(Nc4ccc(Cc5ccccc5)cc4)c3s2)C1)N1CCOCC1 | Tyrosine-protein kinase ITK/TSK (Homo sapiens) (UniProt Q08881) | -0.73 |
| CC1=C(C(=O)Nc2cc(Cl)c3[nH]ncc3c2)C(c2ccc(C(F)(F)F)cc2)CC(=O)N1 (stereo not given) | Tyrosine-protein kinase ITK/TSK (Homo sapiens) (UniProt Q08881) | 1.11 |
| CCOc1ccc2c(-c3ccnc(Nc4cccc(C(F)(F)F)c4)n3)cnn2n1 | Tyrosine-protein kinase ITK/TSK (Homo sapiens) (UniProt Q08881) | 0.45 |
| CN1CCC(n2cnc(-c3ccc(F)cc3)c2-c2ccnc(N)n2)CC1 | Tyrosine-protein kinase ITK/TSK (Homo sapiens) (UniProt Q08881) | 1.04 |
| COc1cc2ncn(-c3cc(OCc4ccccc4C(F)(F)F)c(C(=O)N(C)C)s3)c2cc1OC | Tyrosine-protein kinase ITK/TSK (Homo sapiens) (UniProt Q08881) | 0.81 |
| COc1ccc(-c2cc3c(N)ncnc3o2)cc1 | Tyrosine-protein kinase ITK/TSK (Homo sapiens) (UniProt Q08881) | -0.48 |

Looking up "COc1cc(Nc2nccc(Nc3ccc4c(C)n[nH]c4c3)n2)cc(OC)c1OC" , I found its inhibition recorded as 2.37

Looking up "FC(F)(F)c1cccc(-c2nn3ncccc3c2-c2ccnc(Nc3ccc4c(c3)OCCO4)n2)c1" , I found its inhibition recorded as 0.97

Looking up "CCN(CC)S(=O)(=O)c1ccc(OC)c(Nc2ncc(-c3ccccc3)o2)c1" , I found its inhibition recorded as 0.31

Looking up "Fc1ccc(-c2cc(-c3c[nH]nc3-c3ccccn3)ccn2)cc1" , I found its inhibition recorded as 0.99

* * *

In this section we review reported inhibition values for a set of compounds.
Biological target: Serine/threonine-protein kinase PAK 2 (Homo sapiens) (UniProt Q13177);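 also: values are mean percent inhibition of PAK2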
Sequence (Q13177 whole entry): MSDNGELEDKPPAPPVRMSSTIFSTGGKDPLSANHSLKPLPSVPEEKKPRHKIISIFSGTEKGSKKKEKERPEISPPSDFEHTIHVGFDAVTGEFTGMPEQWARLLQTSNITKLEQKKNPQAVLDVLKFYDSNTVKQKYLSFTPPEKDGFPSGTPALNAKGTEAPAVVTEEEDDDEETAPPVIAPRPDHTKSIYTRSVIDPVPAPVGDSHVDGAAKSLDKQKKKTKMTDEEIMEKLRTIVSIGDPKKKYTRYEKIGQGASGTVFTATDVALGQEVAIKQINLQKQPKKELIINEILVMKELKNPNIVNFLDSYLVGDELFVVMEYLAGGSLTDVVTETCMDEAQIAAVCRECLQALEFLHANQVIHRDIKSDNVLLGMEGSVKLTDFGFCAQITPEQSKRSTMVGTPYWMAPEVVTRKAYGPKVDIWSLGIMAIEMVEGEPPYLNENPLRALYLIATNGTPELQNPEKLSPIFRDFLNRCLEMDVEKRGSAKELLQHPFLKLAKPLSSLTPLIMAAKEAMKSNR
Details: at 0.1 µM
A complete answer gives the number followed by the unit.

Illustrative cases are given below, each with its answer.
| INPUT SMILES | inhibition |
| --- | --- |
| CC(C)(CO)CNC(=O)c1ccc2c(c1)/C(=N/Nc1ccc(S(N)(=O)=O)cc1)C(=O)N2 | -1.4% |
| CS(=O)(=O)CCNCc1ccc(-c2ccc3ncnc(Nc4ccc(OCc5ccccc5)c(C(F)(F)F)c4)c3c2)o1 | 1.24% |
| CC(=O)Nc1cccc(C#Cc2cncnc2Nc2ccc(OCc3cccc(F)c3)c(Cl)c2)c1 | 2.19% |

Consider the record given below.
// inhibition (Serine/threonine-protein kinase PAK 2 (Homo sapiens) (UniProt Q13177)) for "O=C(O[C@H]1CN[C@H](C#Cc2cc3ncnc(Nc4ccc(Cc5ccccc5)cc4)c3s2)C1)N1CCOCC1" = 0.85%
